In this section we review reported self-cleavage kobs at 10000 uM GlcN6P values for a set of variants.
B1: glmS ribozyme (parent)
chain: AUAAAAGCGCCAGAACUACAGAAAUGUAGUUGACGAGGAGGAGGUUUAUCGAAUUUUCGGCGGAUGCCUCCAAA

- Variants of: B1
- Assay Details: self-cleavage kobs at 10000 uM GlcN6P; higher = faster cleavage; RNA array
- Condition Description: with glucosamine-6-phosphate
This sample holds only a part of the variants without activity.
Outcome Measure: self-cleavage kobs at 10000 uM GlcN6P

C8A C11G U46G	< 1e-05 s⁻¹
A6U A36G	< 1e-05 s⁻¹
A6C G29U C34U U47G C58G C70G	0.000144 s⁻¹
G9U G41U A42G A52U A64U C68U	< 1e-05 s⁻¹
G7U U49A A52C G60C C61U	< 1e-05 s⁻¹
G7C G29C G35U	< 1e-05 s⁻¹
A12C A39U A48C	4.14e-05 s⁻¹
A12U U56A U65G	0.00413 s⁻¹
G41C C70U	0.000516 s⁻¹
A15G U47G U55A	0.00887 s⁻¹
G38A U49A	< 1e-05 s⁻¹
G37U G40A G59U	< 1e-05 s⁻¹
G40A U56G	0.00256 s⁻¹
G7U U49G	< 1e-05 s⁻¹
A6G G7A C16G U47A A53C C58A	< 1e-05 s⁻¹
G59C C61G	< 1e-05 s⁻¹
G13U C70G	3.71e-05 s⁻¹
U31G U56A	0.00519 s⁻¹
C34U G35U	< 1e-05 s⁻¹
A39U A64G	0.0327 s⁻¹
G35U U46A C58U	< 1e-05 s⁻¹
G41C G44U G66U	< 1e-05 s⁻¹
G43A U55G U57A U65G	< 1e-05 s⁻¹
G43U C50U G63A	< 1e-05 s⁻¹
C8U U30G	< 1e-05 s⁻¹
G40U A48G G59U	< 1e-05 s⁻¹
A6C G43U	< 1e-05 s⁻¹
G35C G40U	< 1e-05 s⁻¹
U45C G63U	< 1e-05 s⁻¹
A36C U69G	3.45e-05 s⁻¹
U30C G62A C68G	< 1e-05 s⁻¹
G32A U69G C71A	4.49e-05 s⁻¹
A6G C50G C68G	2.86e-05 s⁻¹
U47A A53U C58A	0.000151 s⁻¹
A6G A39C G63U A64U C67G	< 1e-05 s⁻¹
G32A A36C U45C C70U	< 1e-05 s⁻¹
G37C A48U	< 1e-05 s⁻¹
A15C A42G A53C	0.00192 s⁻¹
U54A C67U C70A	4.02e-05 s⁻¹
U30C G37C C58A G60U	< 1e-05 s⁻¹
C58A C71U	0.000386 s⁻¹
A6U C16G	3.87e-05 s⁻¹
A12U C16A G35A A42C G59U C71U	< 1e-05 s⁻¹
A14C C50G C70G	7.94e-05 s⁻¹
U31G A36U G40C U56G G66A	< 1e-05 s⁻¹
A6C C10G	< 1e-05 s⁻¹
